Tested on: NCI-H460
Test: NCI tumour cell line growth inhibition, 48 h
The source made the active and inactive calls. No stated cut-off is given here; in the data, active = GI50 up to about 1.1 µM and inactive = higher.
Catalogue of GI50 values

Worked set:
{"columns": ["MOLECULE", "RESULT"],
 "data": [
  ["COc1cc2c3c(c1)CCCN3CCC2", "> 10 µM (inactive)"],
  ["CC1=C(C(=O)Nc2cccc(C(F)(F)F)c2)C(c2ccccc2F)C(C(=O)Nc2cccc(C(F)(F)F)c2)=C(C)N1", "4.23 µM (inactive)"],
  ["c1cc2ccc1C1NCCCN1CCN1CCCNC1c1ccc(cc1)C1NCCCN1CCN1CCCNC21 (centres undefined)", "77.3 µM (inactive)"],
  ["CC1OC2OC3C(OCC(O)C3O)OC(=O)[C@]34CCC(C)(C)CC3C3=CCC5[C@@]6(C)C[C@H](O)[C@H](OC7OC(CO)C(O)C(O)C7OC7OCC(OC(=O)CC(C)(O)CC(=O)OC1C(OC1OC(CO)C(O)C(O)C1O)C2O)C(O)C7O)[C@@](C)(CO)C6CC[C@@]5(C)[C@]3(C)CC4 (some centres undefined)", "12 µM (inactive)"],
  ["COc1ccc(OC)c(NC(=O)c2c(Cl)c(Cl)c(Cl)c(Cl)c2-c2nc3ccccc3[nH]2)c1", "> 100 µM (inactive)"]
]}

Fill in GI50 for record N#Cc1ccc(/N=N/N2CCCC2)cc1
> 100 µM (inactive)

Provide only the value of recorded GI50 for C=C1C(=O)OC2C1CC[C@H](C)C13OC(=O)CC1[C@@]23C (some centres undefined)
> 100 µM (inactive)

Entry CCOC(=O)c1cc(=O)c2cccc3c2n1CCS3 needs its GI50 filled in; supply it.
83.9 µM (inactive)

Read off the recorded GI50 for Cc1cc(C)cc(Nc2cc(O)nc(O)n2)c1
> 100 µM (inactive)

* * *

Tested on: HCC 2998
Assay: NCI tumour cell line growth inhibition, 48 h
Activity calls are given as the source filed them. No stated cut-off is given here; in the data, active = GI50 up to about 1.1 µM and inactive = higher.
Bench note: report the call from active, inactive

{"columns": ["COMPOUND", "ASSIGNED_LABEL"],
 "data": [
  ["N#Cc1ccc(/N=N/N2CCCC2)cc1", "inactive"]
]}

Please indicate how the test categorized CC(C)(CO)CNc1nc(N)nc(Cl)c1N .
inactive

# fetch the recorded call for CC1OC(O[C@H]2CC[C@]3(C)[C@H]4CC=C5[C@@H]6[C@@H](C)[C@H](C)CC[C@]6(C(=O)O)CC[C@@]5(C(=O)O)[C@]4(C)CC[C@H]3C2(C)C)C(O)C(O)C1O (stereo partly specified) here
inactive

Assay outcome for COC(=O)c1ccc(Cc2ccc(C(=O)OC)o2)o1 : what was it?
inactive

I'd appreciate the recorded outcome for O=C(O)c1ccc2c(c1)CC1(C2)Cc2ccccc2C1=O (stereo unspecified) from this test.
inactive

What classification did Cc1cccc(-c2cc(O)c3c(C)ccnc3n2)c1 end up with in this test?
active

Which result was noted for this compound in the test: CN1CCN(C2=NCCO2)CC1
inactive

Give the logged outcome of this assay for the following compound: O=c1c2ccccc2sc2ccccc12
inactive

State the result this test recorded for COC1(O)C(=O)c2ccccc2OC1(OC)c1ccccc1 (stereo unspecified) .
inactive

In this assay, the call recorded for O=[N+]([O-])c1cc2no[n+]([O-])c2cc1N1CCCCC1 was what?
inactive

Hi, sorry to bother you, what did the test record for O=C(/C=C/c1cccc(Br)c1)N1CCN(CCOC(c2ccccc2)c2ccccc2)CC1 ?
inactive

* * *

System: SW-620
Test: NCI tumour cell line growth inhibition, 48 h
The source made the active and inactive calls. Cut-off read from the data, not from the text of the source: active = GI50 up to about 1.1 µM and inactive = higher.
Response enum: active, inactive

State the result this test recorded for COC1(O)C(=O)c2ccccc2OC1(OC)c1ccccc1 (stereo not given) .
inactive

Please state the recorded outcome for this molecule: COc1ccc(OC)c(NC(=O)c2c(Cl)c(Cl)c(Cl)c(Cl)c2-c2nc3ccccc3[nH]2)c1
inactive

Hello, I am checking results. What call was entered for CN(C)c1ccccc1CC(c1c[nH]c2ccccc12)c1c[nH]c2ccccc12 ?
inactive

Just curious, what result did CC(=O)OCC1OC(c2nc3ccccc3s2)=CC(OC(C)=O)C1OC(C)=O (stereo not given) get here?
inactive

What did the test return for Nc1ccccc1N/C=C\C(=O)C(Cl)(Cl)Cl ?
inactive

// outcome(item) with item = O=c1c2cccc3cccc(c4n1CCN=4)c32
inactive

What is the recorded call for this molecule in the test? [O-]c1c2cc(-[n+]3c(-c4ccccc4)cc(-c4ccccc4)cc3-c3ccccc3)cc1CO[C@@H](c1ccccc1)[C@H](c1ccccc1)OCCOCCO[C@@H](c1ccccc1)[C@H](c1ccccc1)OC2
active

Each molecule tested received a call. Report the one for CC1=NNC(=O)C1C1CC(c2c[nH]c3ccccc23)=NN(c2ccccc2)C1=O (stereo not given) .
inactive

* * *

System: NCI/ADR-RES
Assay: NCI tumour cell line growth inhibition, 48 h
The source made the active and inactive calls. Rule as the data show it: active = GI50 up to about 1.1 µM and inactive = higher.
MEASUREMENT_TYPE: GI50

Below are worked cases with known answers.
{"columns": ["COMPOUND", "MEASUREMENT_TYPE", "RESULT"],
 "data": [
  ["O=C(/C=C/c1ccc(F)c(F)c1)OCCc1ccccc1", "GI50", "> 100 µM (inactive)"],
  ["Cc1ncc2c(=O)c3c(oc2n1)c1ccccc1n3Cc1ccccc1", "GI50", "> 100 µM (inactive)"],
  ["CC(C)(CCC(C)(C)N1OC1c1ccccc1)N1OC1c1ccccc1 (centres undefined)", "GI50", "58.6 µM (inactive)"],
  ["CC(=O)c1cccc(Nc2c3ccccc3nc3occc23)c1", "GI50", "2.51 µM (inactive)"],
  ["CCCCCNC(=O)OC1CCn2c1nc1c2C(=O)C(C)=C(N2CC2)C1=O (centres undefined)", "GI50", "2.56 µM (inactive)"]
]}

Read the entry CC(C)CCCC(C)[C@H]1CCC2[C@@H]3CCC4Cc5nc6c(nc5C[C@]4(C)C3CC[C@@]21C)CC1CC[C@@H]2C(C[C@@H](O)[C@@]3(C)C2C[C@@H]2OC4(CCC(C)CO4)C(C)[C@@H]23)[C@@]1(C)C6 (some centres undefined) and write its reported GI50.
> 100 µM (inactive)

Answer with the recorded GI50 of Cc1ccc(S(=O)(=O)N/N=C2\C=CC3(CC2)C(=O)N(I)c2ccccc23)cc1 (centres undefined) only.
> 100 µM (inactive)

Indicate the recorded GI50 value for this compound: Cc1cccc2sc(NC(=O)c3cc([N+](=O)[O-])ccc3Cl)nc12
2.76 µM (inactive)

Identify measured GI50 associated with CC(=O)OCC1OC(OC(C)=O)C(Nc2ncc(-c3ccc(C)cc3)s2)C(OC(C)=O)C1OC(C)=O (centres undefined)
30.6 µM (inactive)

* * *

Test system: RXF 393
Assay: NCI tumour cell line growth inhibition, 48 h
Active and inactive are the calls of the source. Rule as the data show it: active = GI50 up to about 1.1 µM and inactive = higher.
MEASUREMENT_TYPE: GI50

{"columns": ["COMPOUND", "RESULT"],
 "data": [
  ["CCC(O)c1ccc(/N=C/c2ccccc2O)cc1 (stereo not drawn)", "> 100 µM (inactive)"]
]}

Note GI50 for the compound shown: CN(Cc1cc(C(C)(C)C)cc(Br)c1O)Cc1cc(C(C)(C)C)cc(Br)c1O
2.21 µM (inactive)

Note down GI50 recorded for OCc1cc2ccncc2c2c1[nH]c1ccccc12
2.96 µM (inactive)

* * *

System: NCI-H522
Test: NCI tumour cell line growth inhibition, 48 h
The source made the active and inactive calls. Rule as the data show it: active = GI50 up to about 1.1 µM and inactive = higher.
MEASUREMENT_TYPE: GI50

Worked cases, answers included:
{"columns": ["COMPOUND", "GI50"],
 "data": [
  ["COC(=O)C1=C(c2cc(OC)c(OC)c(OC)c2)OC(c2cc(OC)c(OC)c(OC)c2)C1COC(C)=O (stereo not given)", "16.7 µM (inactive)"],
  ["C=C1C(=O)OC2C1C(OC(=O)/C(C)=C/C)CC1(C)C(=O)CCC(=C)C21 (stereo not given)", "2.54 µM (inactive)"],
  ["C/C(=N\\c1c2ccccc2nc2ccccc12)N(C)C", "10.7 µM (inactive)"],
  ["CN(C)Cc1ccc(-c2cc3onc(-c4ccccc4)c3c(=O)n2C)cc1", "18.7 µM (inactive)"],
  ["COC(=O)C(=O)C(C(=O)C1=NS(=O)(=O)c2cc(S(N)(=O)=O)c(Cl)cc2N1)c1nc2ccc(C(=O)c3ccccc3)cc2nc1O (stereo not given)", "37.2 µM (inactive)"]
]}

Fill in reported GI50 for this entry: CCc1c(C)c(C#N)c(=S)n(C2OC(COC(C)=O)C(OC(C)=O)C(OC(C)=O)C2OC(C)=O)c1-c1ccccc1 (stereo not given)
26.1 µM (inactive)

Give the value of GI50 reported for the following: c1ccc(CN2CCCN3CCN(CCCN(Cc4ccccc4)CC3)CC2)cc1
36.1 µM (inactive)

For the compound O=C1C2CC=CCC2C(=O)N1n1c(Cc2ccccc2)n[nH]c1=O (stereo not given) , report GI50.
> 100 µM (inactive)

Kindly indicate its recorded GI50. Item: CO/C=C/c1cc2c(cc1C(OC)OC)OCO2
> 100 µM (inactive)

Consider the compound COC(=O)c1ccc(Cc2ccc(C(=O)OC)o2)o1 and give its recorded GI50.
> 378 µM (inactive)

Ref: ChEMBL document CHEMBL1201862
